- condition set: human, cells or culture medium
readout name: metabolised at 48 h

// returns reported metabolised at 48 h for input NC(=O)CCNC(=O)CCNC(=O)CCNC(=O)CCNC(=O)CCNC(=O)CCNC(=O)C[C@@H](N)Cc1ccccc1 [NH2-βFβA6-Amide]
< 10%

====

- condition set: human, cells or culture medium
readout name: remaining at 48 h

I have this compound here, NC(=O)CCNC(=O)CCNC(=O)CCNC(=O)CCNC(=O)CCNC(=O)CCNC(=O)C[C@@H](N)Cc1ccccc1 [NH2-βFβA6-Amide] , and I need its recorded remaining at 48 h.
> 92%
